experiment: Stability of the analytes in human plasma at QC levels
Assay type: in vitro ADME
cond: middle QC; autosampler r.t., 24 h; n = 5
Task for the reader: assign each of the following compounds its reported The autosampler MCM ± SD (24h).

Asked: Supply measured The autosampler MCM ± SD (24h) of CCC(=O)OCC(=O)[C@@]1(OC(=O)CC)[C@@H](C)C[C@H]2[C@@H]3CCC4=CC(=O)C=C[C@]4(C)[C@@]3(F)[C@@H](O)C[C@@]21C [BDP, betamethasone dipropionate] in your reply.
Given back: 4.304 ± 0.123 × 10^−9 mol·dm^−3

Asked: For the compound CCC(=O)OCC(=O)[C@@]1(O)[C@@H](C)C[C@H]2[C@@H]3CCC4=CC(=O)C=C[C@]4(C)[C@@]3(F)[C@@H](O)C[C@@]21C [B21P, betamethasone 21-monopropionate] , give its reported The autosampler MCM ± SD (24h).
Given back: 1.993 ± 0.129 × 10^−9 mol·dm^−3

Asked: Quickly give me recorded The autosampler MCM ± SD (24h) for C[C@H]1C[C@H]2[C@@H]3CCC4=CC(=O)C=C[C@]4(C)[C@@]3(F)[C@@H](O)C[C@]2(C)[C@@]1(O)C(=O)CO
Given back: 10.20 ± 0.505 × 10^−9 mol·dm^−3

Asked: Using known records, supply The autosampler MCM ± SD (24h) for CCC(=O)O[C@]1(C(=O)CO)[C@@H](C)C[C@H]2[C@@H]3CCC4=CC(=O)C=C[C@]4(C)[C@@]3(F)[C@@H](O)C[C@@]21C [B17P, betamethasone 17-monopropionate]
Given back: 1.266 ± 0.094 × 10^−9 mol·dm^−3

Asked: Assign The autosampler MCM ± SD (24h) to the following record: C[C@H]1C[C@H]2[C@@H]3CCC4=CC(=O)C=C[C@]4(C)[C@@]3(F)[C@@H](O)C[C@]2(C)[C@@]1(O)C(=O)COP(=O)([O-])[O-].[Na+].[Na+] [BSP, betamethasone sodium phosphate]
Given back: 40.83 ± 5.209 × 10^−9 mol·dm^−3
